- Protocol Text: Viability of fibroblast cells, MTT assay
- Assay type: cell-based, Human
- Condition Label: human, primary dermal fibroblast cells; 1 µmol/L, 24 h, MTT; ± 2; read-out: Viability of fibroblast cells
Residues, ends and D or L forms follow the SMILES beside them.
Test Readout: viability at 24 h, 1 µmol/L (%)
Please state the figure in %; there is no need to write the unit.

1) C[C@@H](O)[C@H](NC(=O)[C@H](CCCCN)NC(=O)CCCCC1CCSS1)C(=O)N[C@H](C(=O)N[C@@H](CCCNC(=N)N)C(=O)N[C@@H](CO)C(=O)O)[C@@H](C)O (mixture of isomers) [Peptide 11, Lip-Lys-Thr-Thr-Arg-Ser-OH]    102
2) C[C@@H](O)[C@H](NC(=O)[C@H](CCCCN)NC(=O)CCCCC1CCSS1)C(=O)N[C@H](C(=O)N[C@@H](CCCCN)C(=O)N[C@@H](CO)C(N)=O)[C@@H](C)O (mixture of isomers) [Peptide 7, Lip-Lys-Thr-Thr-Lys-Ser-NH2]    97
3) CCCCCCCCCCCCCCCC(=O)N[C@@H](CCCCN)C(=O)N[C@H](C(=O)N[C@H](C(=O)N[C@@H](CCCNC(=N)N)C(=O)N[C@@H](CO)C(=O)O)[C@@H](C)O)[C@@H](C)O [Peptide 12, Pal-Lys-Thr-Thr-Arg-Ser-OH] (HELM PEPTIDE1{[CCCCCCCCCCCCCCCC(=O)[*:2]].K.T.T.R.S}$$$$V2.0)    103
4) CCCCCCCCCCCCCCCC(=O)N[C@@H](CCCCN)C(=O)N[C@H](C(=O)N[C@H](C(=O)N[C@@H](CCCNC(=N)N)C(=O)N[C@@H](CO)C(N)=O)[C@@H](C)O)[C@@H](C)O [Peptide 16, Pal-Lys-Thr-Thr-Arg-Ser-NH2] (HELM PEPTIDE1{[CCCCCCCCCCCCCCCC(=O)[*:2]].K.T.T.R.S.[am]}$$$$V2.0)    104
5) C[C@@H](O)[C@H](NC(=O)[C@H](CCCNC(=N)N)NC(=O)CCCCC1CCSS1)C(=O)N[C@H](C(=O)N[C@@H](CCCNC(=N)N)C(=O)N[C@@H](CO)C(N)=O)[C@@H](C)O (mixture of isomers) [Peptide 23, Lip-Arg-Thr-Thr-Arg-Ser-NH2]    89

Now, please, on to the next compound.
Please supply the value of reported viability at 24 h, 1 µmol/L for the item C[C@@H](O)[C@H](NC(=O)[C@H](CCCNC(=N)N)NC(=O)CCCCC1CCSS1)C(=O)N[C@H](C(=O)N[C@@H](CCCCN)C(=O)N[C@@H](CO)C(=O)O)[C@@H](C)O (mixture of isomers) [Peptide 27, Lip-Arg-Thr-Thr-Lys-Ser-OH]
105
